Reference for the values: the supplement of paper PMC9492666

# Tested on: HCC1937;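 note: viability read by CCK-8 kit in 96-well plates, part of a combination screen pairing lipid-metabolism-targeting compounds with erastin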
# ASSAY EXPLANATION: relative cell viability, compound + erastin, vs DMSO (fraction of DMSO control); higher = less growth inhibition
# RUN CONDITIONS: 72 h
Below: a set of entries, each annotated with reported relative cell viability.
QUANTITY NAME: relative cell viability

- O=S(=O)(Nc1ccc(C(O)(C(F)(F)F)C(F)(F)F)cc1)c1cccs1 + CCOc1ccccc1-n1c(C(C)N2CCN(C(=O)COc3ccc(Cl)cc3)CC2)nc2ccccc2c1=O: 0.652
- COc1c(/C=C/C(=O)c2ccc(O)cc2)ccc(O)c1CC=C(C)C + CCOc1ccccc1-n1c(C(C)N2CCN(C(=O)COc3ccc(Cl)cc3)CC2)nc2ccccc2c1=O: 0.58
- CCOC(=O)c1c(NC(=O)CN2CCN(C(=O)c3ccco3)CC2)sc2c1CCC2 + CCOc1ccccc1-n1c(C(C)N2CCN(C(=O)COc3ccc(Cl)cc3)CC2)nc2ccccc2c1=O: 0.647
- CCCCCCCCCc1ccc(B(O)O)cc1 [4-Nonylphenylboronic acid] + CCOc1ccccc1-n1c(C(C)N2CCN(C(=O)COc3ccc(Cl)cc3)CC2)nc2ccccc2c1=O: 0.9
- Cc1c(C(=O)Nc2ccc(CO)cc2)nnn1Cc1ccc(Cl)c(Cl)c1 + CCOc1ccccc1-n1c(C(C)N2CCN(C(=O)COc3ccc(Cl)cc3)CC2)nc2ccccc2c1=O: 0.684
